Reported CC50 at 48 h values for the following compounds.
# protocol-description: Cytotoxicity against African green monkey Vero cells assessed as reduction in cell population incubated for 48 hrs by MTT assay
# Assay type: toxicity, cell-based
# protocol-conditions: chlorocebus sabaeus
Numbers only here, please. The scale is µM.

compound: CCCCCCCCCCCCCCCC(CO)NCC (stereo not drawn)
measure-unit: µM
CC50 at 48 h: 27.7
//
compound: CCCCCCCCCCCCCCCCCCCC(CNCC)NC(=O)OC(C)(C)C (stereo not drawn)
measure-unit: µM
CC50 at 48 h: 33.7
//
compound: CCCCCCCCCCCCCCCCCCCC(CN)NC(=O)OC(C)(C)C (stereo not drawn)
measure-unit: µM
CC50 at 48 h: 51.4
//
compound: CCCCCCCCCCCCCCCC(CO)NCCCC (stereo not drawn)
measure-unit: µM
CC50 at 48 h: 73.4
//
compound: CCCCCCCCCCCC(CNCC)NC(=O)OC(C)(C)C (stereo not drawn)
measure-unit: µM
CC50 at 48 h: 32.3

What measured CC50 at 48 h goes with CCCCCCCCCCCCCCCC(N)CO (stereo not drawn) ? 125

Could you share which CC50 at 48 h value was measured for CCCCCCCCCCCCCCCC(CO)NCCCCCCCCCC (stereo not drawn) ? 104

----------
# System: Klebsiella pneumoniae
# protocol-description: Antibacterial activity against Klebsiella pneumoniae ATCC 13883 incubated for 18 hrs by resazurin dye based broth microdilution method
# Type: functional
result-type: MIC

// worked examples, MIC included
compound: CCCCCCCCCCCCCCCC(CNCCCC)NC(=O)OC(C)(C)C (stereo not drawn)
system-name: Klebsiella pneumoniae
value: > 512 µM
--
compound: CCCCCCCCCCCCCCCC(CNCCCCCC)NC(=O)OC(C)(C)C (stereo not drawn)
system-name: Klebsiella pneumoniae
value: > 512 µM
--
compound: CCCCCCCCCCCCCCCCCCCC(N)COCc1ccccc1 (stereo not drawn)
system-name: Klebsiella pneumoniae
value: > 512 µM
--
compound: CCCCCCCCCCCCCCCCCC(COCc1ccccc1)NCCCCCC (stereo not drawn)
system-name: Klebsiella pneumoniae
value: > 512 µM

Recorded MIC of CCCCCCCCCCCCCCCC(CO)NCCCCCC (stereo not drawn) , please. > 512 µM

Which MIC reading was recorded for the compound "CC(C)(O/N=C(\C(=O)N[C@@H]1C(=O)N2C(C(=O)[O-])=C(C[n+]3ccccc3)CS[C@H]12)c1csc(N)n1)C(=O)O" ? 0.5 µM

Return reported MIC; argument: CCCCCCCCCCCCCCCC(CO)NCCCCCCCCCC (stereo not drawn) > 512 µM

Can you share its MIC? I mean this compound: CCCCCCCCCCCCCCCC(N)CN (stereo not drawn) > 512 µM

I would be grateful if you could share the reported MIC for CCCCCCCCCCCCCCCC(CN=[N+]=[N-])NC(=O)OC(C)(C)C (stereo not drawn) . > 512 µM

----------
# protocol-description: Cytotoxicity against mouse J774.A1 cells assessed as reduction in cell population incubated for 48 hrs by MTT assay
# Format: toxicity, cell-based
# key: entry, value: CC50 at 48 h
Don't forget the unit after the number, please.

Here are 5 molecules together with their reported answers.
molecule: CCCCCCCCCCCCCCCC(CNCCCC)NC(=O)OC(C)(C)C (stereo unspecified)
CC50 at 48 h: 21.2 µM

molecule: CCCCCCCCCCCCCCCC(CO)N(CCCC)CCCC (stereo unspecified)
CC50 at 48 h: 22.4 µM

molecule: CCCCCCCCCCCCCCCCCC(CO)N(CC)CC (stereo unspecified)
CC50 at 48 h: 49.5 µM

molecule: CCCCCCCCCCCCCCCC(CN)NC(=O)OC(C)(C)C (stereo unspecified)
CC50 at 48 h: 5.18 µM

molecule: CCCCCCCCCCCCCCCCCC(CN)NC(=O)OC(C)(C)C (stereo unspecified)
CC50 at 48 h: 30.5 µM

Reported CC50 at 48 h for CCCCCCCCCCCCCCCC(CNCC)NC(=O)OC(C)(C)C (stereo unspecified) : what is it? 19.8 µM
